Molecular target: JAK1 (Homo sapiens)
Construct: made in house; host or cells: SF9 insect cells (baculovirus)
Sequence (P23458 852-1154): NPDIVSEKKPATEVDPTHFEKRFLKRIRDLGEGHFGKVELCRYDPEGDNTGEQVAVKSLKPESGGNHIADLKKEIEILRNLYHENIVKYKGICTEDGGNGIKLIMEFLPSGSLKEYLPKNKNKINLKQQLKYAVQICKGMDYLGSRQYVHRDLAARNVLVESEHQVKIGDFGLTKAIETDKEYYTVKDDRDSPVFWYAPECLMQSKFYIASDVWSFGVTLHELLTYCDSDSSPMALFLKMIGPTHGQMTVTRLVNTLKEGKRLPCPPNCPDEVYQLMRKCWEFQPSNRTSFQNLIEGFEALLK
Experiment: JAK1 inhibition (Table 4)
Type: biochemical
Settings: read-out: JAK1 Ki
pKi: −log10 of the molar value.
PROPERTY NAME: pKi

Study these solved cases before continuing.
pKi for CS(=O)(=O)NCCc1nc2cnc3[nH]ccc3c2n1[C@H]1CCCOC1 [Example 854] ?
8.40

pKi for FC1CNCCC1n1cnc2cnc3[nH]ccc3c21 (racemic) [Example 520] ?
7.42

pKi for COC1CNCCC1n1nnc2cnc3[nH]ccc3c21 (racemic) [Example 536] ?
7.49

pKi for Cc1nc2cnc3[nH]ccc3c2n1C1CNCCOC1 (stereo not drawn) [Example 910] ?
7.30

pKi for CNc1nc2cnc3[nH]ccc3c2n1C1CCCOC1 (stereo not drawn) [Example 773] ?
7.91

a = N#CCC(=O)N1CCCC(n2cnc3cnc4[nH]ccc4c32)CC1 (racemic) [Example 485]
b = CCS(=O)(=O)N1CCC(C)(n2cnc3cnc4[nH]ccc4c32)CC1 [Example 757]
Two entries are listed, a and b . Which one carries the higher pKi? Mark your answer with the label of the selected entry.
a
(a: 8.97, b: 8.69)

A = CC1(n2cnc3cnc4[nH]ccc4c32)CCCN(C(=O)CC#N)C1 (racemic) [Example 706]
B = CNc1nc2cnc3[nH]ccc3c2n1C1CCN(Cc2cccc(C#N)c2)CC1 [Example 772]
Two entries are listed, A and B . Which one carries the higher pKi? Mark your answer with the label of the selected entry.
B

----------
Molecular target: TYK2 (Homo sapiens)
Sequence (P29597 873-1187): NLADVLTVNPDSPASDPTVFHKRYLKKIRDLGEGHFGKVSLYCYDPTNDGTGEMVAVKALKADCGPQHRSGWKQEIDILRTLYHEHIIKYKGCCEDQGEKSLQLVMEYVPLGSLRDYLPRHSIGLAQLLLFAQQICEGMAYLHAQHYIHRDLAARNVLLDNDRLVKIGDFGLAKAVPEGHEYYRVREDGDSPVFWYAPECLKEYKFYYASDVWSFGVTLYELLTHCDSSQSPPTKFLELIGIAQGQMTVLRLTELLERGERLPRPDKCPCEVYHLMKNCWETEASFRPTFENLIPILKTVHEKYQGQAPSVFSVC
PROPERTY NAME: Ki (µM)

Study these solved cases before continuing.
Ki for COCC(=O)N1CCC(n2cnc3cnc4[nH]ccc4c32)CC1 [Example 192] ?
0.388

Ki for CCCS(=O)(=O)N1CCC(n2c(Cc3conc3C)nc3cnc4[nH]ccc4c32)CC1 [Example 381] ?
1.99

Ki for CC(O)c1nc2cnc3[nH]ccc3c2n1C1CCCN(CCF)C1 (centres unmarked) [Example 664] ?
0.0585

Ki for O=S(=O)(c1ccccc1)N1CCC(n2cnc3cnc4[nH]ccc4c32)CC1 [Example 55] ?
0.031

Ki for CC(C)(C#N)C(=O)N1CC[C@@H](n2cnc3cnc4[nH]ccc4c32)C1 [Example 186] ?
1.5

Ki for N#CCCN1CCC(n2c(Cc3cccnc3)nc3cnc4[nH]ccc4c32)CC1 [Example 403] ?
0.102

A = CN1CCC[C@H]1C(=O)N1CCC(n2cnc3cnc4[nH]ccc4c32)CC1 [Example 78]
B = Cn1nccc1C(=O)NCc1nc2cnc3[nH]ccc3c2n1C1CCN(CCC#N)CC1 [Example 209]
Two entries are listed, A and B . Which one carries the higher Ki? Mark your answer with the label of the selected entry.
A

P = N#Cc1ccc(S(=O)(=O)N2CC[C@@H](n3cnc4cnc5[nH]ccc5c43)C2)cc1 [Example 433]
Q = CN(CC(F)(F)F)C(=O)NC1CCC(n2cnc3cnc4[nH]ccc4c32)CC1 (centres unmarked) [Example 745]
R = O=C(CN1CCCCC1=O)N1CCC(n2cnc3cnc4[nH]ccc4c32)CC1 [Example 441]
S = O=C(NCCc1nc2cnc3[nH]ccc3c2n1C1CCCCC1)C1CC1(F)F (racemic) [Example 515]
Sort entries by Ki from minimum to maximum value. Dear reader, please state the labels in the requested order.
S, Q, P, R

A = CC1(n2cnc3cnc4[nH]ccc4c32)CCN(C(=O)CC#N)CC1 [Example 579]
B = O=C(Cc1nc2cnc3[nH]ccc3c2n1C1CCCOC1)N1CCC(O)CC1 (racemic) [Example 986]
C = CC(O)c1nc2cnc3[nH]ccc3c2n1C1CCCN(C(=O)C2CC2(F)F)C1 (centres unmarked) [Example 790]
Put the items in sequence by Ki, from largest down. Dear reader, please state the labels in the requested order.
C, A, B

A = O=C(Cc1nc2cnc3[nH]ccc3c2n1C1CCCOC1)N1CCCC(O)C1 (racemic) [Example 982]
B = CC(O)c1nc2cnc3[nH]ccc3c2n1C1CCN(CC(=O)N2CCCCC2)CC1 (racemic) [Example 529]
Two entries are listed, A and B . Which one carries the higher Ki? Mark your answer with the label of the selected entry.
B
(B: 2.17 µM, A: 0.273 µM)
